Where do the numbers come from? From ChEMBL document CHEMBL2150978.

# System: Hepatitis C virus
# assay.notes: Antiviral activity against Hepatitis C virus subtype 1b Con1 infected in human Huh7 cells assessed as inhibition of HCV replicon-encoded Renilla luciferase reporter activity after 72 hrs by HCV replicon assay
# Type: functional, organism-based, Hepacivirus hominis
# experimental.setup: Con1, Huh-7, 72 h
Would you mind telling me the reported EC90 of each entry?
Report the value in µM with no unit label.

Input: State recorded EC90 with Hepatitis C virus, entry COc1nc(N)nc2c1ncn2[C@@H]1O[C@H](COP(=O)(N[C@@H](Cc2ccccc2)C(=O)OCC(C)(C)C)N[C@@H](Cc2ccccc2)C(=O)OCC(C)(C)C)[C@@H](O)[C@@]1(C)O (mixture of isomers) , no comment.
Output: 0.21

Input: # return EC90 for COc1nc(N)nc2c1ncn2[C@@H]1O[C@H](COP(=O)(N[C@@H](CC(C)C)C(=O)OCc2ccccc2)N[C@@H](CC(C)C)C(=O)OCc2ccccc2)[C@@H](O)[C@@]1(C)O (mixture of isomers) , test system: Hepatitis C virus
Output: 1.31

Input: Quote EC90 with test system Hepatitis C virus for CCOC(=O)[C@H](C)NP(=O)(N[C@@H](C)C(=O)OCC)OC[C@H]1O[C@@H](n2cnc3c(OC)nc(N)nc32)[C@](C)(O)[C@@H]1O (mixture of isomers)
Output: 4.1

Input: Report EC90 on Hepatitis C virus for this entry: COc1nc(N)nc2c1ncn2[C@@H]1O[C@H](COP(=O)(NC2CC2)N[C@@H](C)C(=O)OCC(C)(C)C)[C@@H](O)[C@@]1(C)O (mixture of isomers)
Output: 4.7

Input: Report EC90 from Hepatitis C virus testing of CCCCNP(=O)(N[C@@H](C)C(=O)OCC(C)(C)C)OC[C@H]1O[C@@H](n2cnc3c(OC)nc(N)nc32)[C@](C)(O)[C@@H]1O (mixture of isomers)
Output: 1.5

Input: Lab note: record EC90 of COc1nc(N)nc2c1ncn2[C@@H]1O[C@H](COP(=O)(N[C@@H](C)C(=O)OCC2CC2)N[C@@H](C)C(=O)OCC2CC2)[C@@H](O)[C@@]1(C)O (mixture of isomers) tested on Hepatitis C virus.
Output: 0.66
